These measurements were taken from ChEMBL document CHEMBL1134944.

- test-system: Phosphodiesterases; PDE5 & PDE6 (Homo sapiens) (UniProt O76074+Q13956+P18545+P35913+O43924+P16499+P51160)
- measurement-description: Selectivity for PDE6 compared to PDE5.
- Assay type: protein assay
observable: Ratio

| smi | value-reported |
| --- | --- |
| CCn1c(=O)c2c(nc(NC3CCCC3)n2Cc2ccc(OC)c(F)c2)n(CC)c1=O | 89 |
| CCn1c(=O)c2c(nc(NC3CCCC3)n2Cc2ccc(OC)c(Cl)c2)n(CC)c1=O | 118 |
| CCn1c(=O)c2c(nc(NC3CCCC3)n2Cc2ccc(OC)cc2)n(CC)c1=O | 33 |
| CCn1c(=O)c2c(nc(NC3CCCC3)n2Cc2ccc(O)c(Cl)c2)n(CC)c1=O | 261 |
| CCn1c(=O)c2c(nc(NC3CCCCC3)n2Cc2ccc(OC)cc2)n(CC)c1=O | 51 |
